// data source = PubChem BioAssay (NCI)

System: SNB-75 CNS
Assay: NCI tumour cell line growth inhibition, 48 h
Listed compounds paired with reported TGI

These recorded examples may help you get a feel for the data.
>>> reported("COc1ccc(/C=C2\\CCC(C)C3=C2NC(=S)NC3c2ccc(OC)c(OC)c2)cc1OC (stereo unspecified)")
"> 100 µM"
>>> reported("C#Cc1ccc(-n2c(/C=C/c3ccc(C(F)(F)F)cc3)nc3ncccc3c2=O)cc1")
"7.22 µM"
>>> reported("CCOC(=O)C(NC(C)=O)(Nc1ccc(F)cc1)C(F)(F)F (stereo unspecified)")
"> 100 µM"
>>> reported("O=C(/C=C/C12c3ccccc3C(c3ccccc31)C1C(=O)NC(=O)C12)c1ccncc1 (stereo unspecified)")
"10.9 µM"
>>> reported("O=C1/C(=C/c2ccc(O)cc2)CC/C1=C\\c1ccc(O)cc1")
"> 100 µM"

Req: Report measured TGI; entry is Cc1nc2ccccc2c(=O)n1-c1ccccc1I
Resp: > 100 µM
